Where do these numbers come from? They come from ChEMBL document CHEMBL5604062.

STUDY_SYSTEM: Nonstructural protein 3 (Zika virus, UniProt A0A024AXB9)
Sequence (A0A024AXB9 whole entry): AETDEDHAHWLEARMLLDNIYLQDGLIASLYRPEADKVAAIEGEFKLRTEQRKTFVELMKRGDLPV
MEASUREMENT_DESCRIPTION: Functional biochemical assay to identify treatments for viral infectious disease that targets Zika NS2B-NS3 protease. Utilizing a direct enzyme activity measurement method, reading the fluorescence intensity is used to characterize the relative potency of inhibitors as IC50.
Set-up: species or system PRVABC59
pIC50: −log10 of the molar value.
MEASURED_PARAMETER: pIC50

{"COMPOUND": "O=C(O)CCc1ccc(NC(=O)c2cc(Cl)cc(C3CC3)c2)cc1", "pIC50": "< 4.00"}
{"COMPOUND": "O=c1[nH]c2cccc(N3CCN(Cc4c[nH]c5ccccc45)CC3)c2[nH]1", "pIC50": "< 4.00"}
{"COMPOUND": "O=C(Nc1ccc2c(c1)CNC2)c1cc2ncccc2s1", "pIC50": "< 4.60"}
{"COMPOUND": "CN1C(=O)[C@H](c2cc(Cl)cc(NC(=O)OCc3ccccc3)c2)N(c2cccc(-c3nn[nH]n3)c2)C1=O", "pIC50": 4.45}
{"COMPOUND": "Cc1cc(C(=O)Nc2cccc(CN)c2)c2c(C)nn(CC(=O)NC(C)C)c2n1", "pIC50": "< 4.00"}

For each of the molecules below, note its pIC50.
1. O=C(Nc1ccc2c(c1)CNC2)c1ccc2sncc2c1
2. O=C(O)c1cc(Cl)ccc1NS(=O)(=O)c1ccc(-c2ccccc2F)cc1
3. O=C(O)[C@@H]1CCCC[C@@H]1NS(=O)(=O)c1ccc(Oc2ccccc2Cl)cc1
4. O=C(NCc1ccc2c(c1)CNC2)c1cc(Cl)cc2[nH]ncc12
5. Cc1c(C(=O)Nc2cc(-c3cccnc3)ccn2)cnn1C1CC1
6. Cc1nc2cc(Cl)ccc2cc1C(=O)Nc1ccc2c(c1)CNC2
7. NCCCc1ccnc(NC(=O)c2cc(Cl)cc(NC(=O)OCc3ccccc3)c2)c1

Result block:
1: 4.80; 2: 4.53; 3: < 4.00; 4: 4.92; 5: < 4.60; 6: < 4.60; 7: 4.73

For each of the molecules below, note its pIC50.
1. COC(=O)Cc1ccccc1-c1ccc(S(=O)(=O)Nc2ccc(Cl)cc2C(=O)O)cc1
2. O=C(Cn1ccnc(N2CC[C@H](CO)C2)c1=O)NCc1cccs1

Result block:
1: < 4.00; 2: < 4.00

For each of the molecules below, note its pIC50.
1. Clc1cc(CCc2cccc(-c3nn[nH]n3)c2)c2cn[nH]c2c1
2. C[C@H]1CN(C(=O)c2cccc3c(CN)cccc23)CCC12CCNCC2
3. O=C(Nc1cc(Cl)cc(C(=O)Nc2ccnc(C(=O)O)c2)c1)OCc1ccccc1
4. NCc1cccc(NC(=O)[C@@H](NC(=O)OCc2ccccc2)c2ccc(F)cc2)c1

Result block:
< 4.00
< 4.00
< 4.00
< 4.00

For each of the molecules below, note its pIC50.
1. COc1cc(C(=O)Nc2cccc(CN)c2)cc2cn(C)nc12
2. O=C(Nc1ccc2c(c1)CNC2)c1ccc2[nH]cnc2c1
3. O=C(O)c1cc(Cl)c(F)cc1NS(=O)(=O)c1ccc(Oc2ccccc2Cl)cc1

Result block:
1: < 4.00; 2: 5.53; 3: 4.98

====

STUDY_SYSTEM: Nonstructural protein 3 (Zika virus, UniProt A0A024AXB9)
MEASUREMENT_DESCRIPTION: Functional biochemical assay to identify treatments for viral infectious disease that targets Zika NS2B-NS3 protease. Utilizing a direct enzyme activity measurement method, reading the fluorescence intensity is used to characterize the relative potency of inhibitors as IC50.
Set-up: species or system PRVABC59
pIC50: −log10 of the molar value.
Exercise: state measured pIC50 for each of the compounds provided.

Take a look at these entries with their results.
{"COMPOUND": "N[C@]12CCC[C@](C(=O)NCc3ccc4c(c3)CCNCC4)(CC1)C2", "STUDY_SYSTEM": "Nonstructural protein 3 (Zika virus, UniProt A0A024AXB9)", "pIC50": "< 4.00"}
{"COMPOUND": "NCc1cc(C(=O)N2CCNC(=O)C2)cc([C@@H]2C[C@H]2c2cc(Cl)cc(NC(=O)OCc3ccccc3)c2)c1", "STUDY_SYSTEM": "Nonstructural protein 3 (Zika virus, UniProt A0A024AXB9)", "pIC50": 4.84}
{"COMPOUND": "NC(=O)c1cn(C2CCCC2)nc1NC(=O)c1cccc2c1CC(=O)N2", "STUDY_SYSTEM": "Nonstructural protein 3 (Zika virus, UniProt A0A024AXB9)", "pIC50": "< 4.60"}
{"COMPOUND": "NCc1cccc(NC(=O)[C@H]2CCCN(C(=O)OCc3ccccc3)C2)c1", "STUDY_SYSTEM": "Nonstructural protein 3 (Zika virus, UniProt A0A024AXB9)", "pIC50": "< 4.00"}
{"COMPOUND": "NC(=O)c1cnccc1N1CCN(Cc2c[nH]c3ccccc23)CC1", "STUDY_SYSTEM": "Nonstructural protein 3 (Zika virus, UniProt A0A024AXB9)", "pIC50": "< 4.00"}

For each of the compounds below, note its pIC50.
1. CC(C)n1cc(C(=O)Nc2cc(-c3cccnc3)ccn2)cn1
2. COC[C@@H](C)CNC(=O)c1cc(Cl)ccc1NS(=O)(=O)c1ccc(Oc2ccccc2Cl)cc1
3. O=C(Nc1cc(Cl)cc(C(=O)Nc2cccc(-n3nn[nH]c3=O)c2)c1)OCc1ccccc1
4. CCn1cc(-c2c[nH]c3ncccc23)nc(N2CC[C@@H](CO)C2)c1=O
5. O=C(Nc1ccc2c(c1)CNC2)c1cccnc1

Result block:
["< 4.60", "< 4.00", 4.51, "< 4.00", 4.78]

====

STUDY_SYSTEM: Nonstructural protein 3 (Zika virus, UniProt A0A024AXB9)
MEASUREMENT_DESCRIPTION: Functional biochemical assay to identify treatments for viral infectious disease that targets Zika NS2B-NS3 protease. Utilizing a direct enzyme activity measurement method, reading the fluorescence intensity is used to characterize the relative potency of inhibitors as IC50.
Parameters: species or system PRVABC59
Exercise: state measured IC50 for each of the compounds provided.

Take a look at these entries with their results.
{"COMPOUND": "O=Cc1ccc(F)c(C(=O)N2CCN(C3=NCCCN3)CC2)c1", "STUDY_SYSTEM": "Nonstructural protein 3 (Zika virus, UniProt A0A024AXB9)", "IC50": "> 99.5 µM"}
{"COMPOUND": "Cc1nc(C2(NC(=O)c3cccc4c3CC(=O)N4)CCC2)no1", "STUDY_SYSTEM": "Nonstructural protein 3 (Zika virus, UniProt A0A024AXB9)", "IC50": "> 25 µM"}
{"COMPOUND": "O=C(Nc1ccc2nc[nH]c2c1)c1cc(F)cc2[nH]ncc12", "STUDY_SYSTEM": "Nonstructural protein 3 (Zika virus, UniProt A0A024AXB9)", "IC50": "3.3 µM"}
{"COMPOUND": "c1ccc2c(CN3CC[C@H](c4c[nH]c5ccccc45)C3)c[nH]c2c1", "STUDY_SYSTEM": "Nonstructural protein 3 (Zika virus, UniProt A0A024AXB9)", "IC50": "> 99.5 µM"}

For each of the compounds below, note its IC50.
1. CCn1ccnc(N2CC[C@H](c3ccc(C#N)cc3)C2)c1=O
2. O=C1OCc2ccc(NC(=O)c3cc(F)cc4[nH]ncc34)cc21
3. Cn1cc(CCOc2ccc([C@@H](NC(=O)OCc3ccccc3)C(=O)Nc3cccc(CN)c3)cc2)nn1
4. Cc1nnc(S(=O)(=O)N2CCC([C@H](NC(=O)OCc3ccccc3)C(=O)Nc3cccc(CN)c3)CC2)s1
5. CCc1cc(Br)cc2c(Cc3ccc(-c4nnn[nH]4)cc3)c[nH]c12
6. CN(C(=O)[C@@H](NC(=O)OCc1ccccc1)c1ccc(OCc2ccccc2)cc1)c1cccc(CN)c1

Result block:
> 99.5 µM
> 25 µM
> 99.5 µM
> 99.5 µM
26.4 µM
> 99.5 µM

====

STUDY_SYSTEM: Nonstructural protein 3 (Zika virus, UniProt A0A024AXB9)
MEASUREMENT_DESCRIPTION: Functional biochemical assay to identify treatments for viral infectious disease that targets Zika NS2B-NS3 protease. Utilizing a direct enzyme activity measurement method, reading the fluorescence intensity is used to characterize the relative potency of inhibitors as IC50.
Parameters: species or system PRVABC59
pIC50: −log10 of the molar value.
Exercise: state measured pIC50 for each of the molecules provided.

Take a look at these entries with their results.
{"COMPOUND": "O=C(Nc1ccc2c(c1)CNC2)c1cc(Cl)cc2nn(C3CCOCC3)cc12", "pIC50": 6.88}
{"COMPOUND": "O=C(Nc1cccc(-c2nnn[nH]2)c1)c1cc(Cl)cc(C2CC2)c1", "pIC50": "< 4.00"}
{"COMPOUND": "CCn1c(=O)c(N2CC[C@H](N3CCCS3(=O)=O)C2)nc2ccccc21", "pIC50": "< 4.00"}
{"COMPOUND": "C=CC[C@H](Nc1cncc(Cl)c1)c1cccc(-c2nn[nH]n2)c1", "pIC50": "< 4.00"}
{"COMPOUND": "O=C(O)c1cc(Cl)ccc1S(=O)(=O)Nc1ccc(CCN2CCCC2)cc1", "pIC50": "< 4.00"}

For each of the molecules below, note its pIC50.
1. NCc1cc(Cl)cc(-c2ccc3[nH]c(C(=O)O)cc3c2)c1
2. NCc1csc2cc(C(=O)Nc3cc([C@H]4CCOC4)ccn3)ccc12
3. NCCc1nsc(NC(=O)c2cc(Cl)cc(NC(=O)OCc3ccccc3)c2)n1
4. NCc1ccc(NC(=O)c2cc(Cl)cc3[nH]ncc23)cc1F
5. O=C(N[C@@H]1CCc2cn[nH]c2C1)c1cccc2c1NC(=O)[C@]1(CCCN1)C2
6. NCc1cccc(NC(=O)c2cc(Cl)cc(C3CC3)c2)c1

Result block:
["< 4.00", "< 4.60", "< 4.00", 5.31, "< 4.00", 5.08]
